# test.name: CellTiter-Glo luminescent cell viability assay, primary fibroblasts
# protocol.conditions: human, primary skin fibroblasts (non-tumorous), Primer fibroblast Cell viability (% of controll), 1.5 μM; 72 h; dose–response, individual replicates
I'd be grateful if you could share measured viability at 72 h, 1.5 µM for these entries.
One number for each entry, in %.

# annotated cases, reported viability at 72 h, 1.5 µM shown
# compound, readout.name, readout.number
rows = [
    ("NCC#Cc1ccc(CN2C(=O)C3=C(CCN(Cc4ccc(-n5cc(-c6ccccc6)nn5)cc4)C3)N3CCN=C23)cc1 [I/B, reference compound]", "viability at 72 h, 1.5 µM", 105),
    ("CNCC#Cc1cccc(CN2C(=O)C3=C(CCN(Cc4ccc(-n5cc(-c6ccc(F)cc6)nn5)cc4)C3)N3CCN=C23)c1 [43b]", "viability at 72 h, 1.5 µM", 107),
]

Consider the record given below.
Lookup: Tell me the measured viability at 72 h, 1.5 µM of CNCC#Cc1cccc(CN2C(=O)C3=C(CCN(Cc4ccc(-n5cc(-c6ccccc6)nn5)cc4)C3)N3CCN=C23)c1 [38b] , please.
Found: 106

----------
# Tested on: Fadu cells
# test.name: CellTiter-Glo luminescent cell viability assay, Fadu
# protocol.conditions: Homo sapiens, FaDu, 72 h, read-out: Cell Viability (% of Control) 8.3 µM, Fadu; 8.3 µM; 72 h; second-set screening; mean ± SD, n = 2
readout.name: viability at 8.3 µM (%)
Answers are plain numbers, in %.

# compound, viability at 8.3 µM (%)
measured = [
    ("NCC#Cc1cccc(CN2C(=O)C3=C(CCN(Cc4ccc(-n5cc(-c6cccc(F)c6)nn5)cc4)C3)N3CCN=C23)c1 [36a]", 6),
    ("NCC#Cc1cccc(CN2C(=O)C3=C(CCN(Cc4ccc(NC(=O)c5ccccc5)cc4)C3)N3CCN=C23)c1 [23b]", 108),
    ("NCc1cccc(CN2C(=O)C3=C(CCN(Cc4ccc(-n5cc(-c6ccccc6)nn5)cc4)C3)N3CCN=C23)c1 [37b]", 91),
    ("O=C1C2=C(CCN(Cc3ccc(-n4cc(-c5ccccc5)nn4)cc3)C2)N2CCN=C2N1Cc1cccc(C#CCN2CCOCC2)c1 [42b]", 91),
    ("NCC#Cc1cccc(CN2C(=O)C3=C(CCN(Cc4ccc(-n5cc(-c6ccc(F)cc6)nn5)cc4)C3)N3CCN=C23)c1 [36b]", 1),
]

List reported viability at 8.3 µM for each of these compounds:
1. NCC#Cc1cccc(CN2C(=O)C3=C(CCN(Cc4ccc(-n5cc(-c6ccccc6)nn5)cc4)C3)N3CCN=C23)c1
2. CN1CCN(CC#Cc2cccc(CN3C(=O)C4=C(CCN(Cc5ccc(-n6cc(-c7ccccc7)nn6)cc5)C4)N4CCN=C34)c2)CC1 [41b]
3. NCC#Cc1cccc(CN2C(=O)C3=C(CCN(Cc4ccc(-n5cc(-c6cc(F)cc(F)c6)nn5)cc4)C3)N3CCN=C23)c1 [36c]
4. Cc1ccccc1CN1C(=O)C2=C(CCN(Cc3ccccc3)C2)N2CCN=C12 [ONC201, reference compound]
5. CNCC#Cc1cccc(CN2C(=O)C3=C(CCN(Cc4ccc(-n5cc(-c6ccccc6)nn5)cc4)C3)N3CCN=C23)c1 [38b]

Found:
[27, 30, 5, 31, 0]

List reported viability at 8.3 µM for each of these compounds:
1. NCC#Cc1ccc(CN2C(=O)C3=C(CCN(Cc4ccc(-n5cc(-c6ccccc6)nn5)cc4)C3)N3CCN=C23)cc1 [I/B, reference compound]
2. CN(C)CC#Cc1cccc(CN2C(=O)C3=C(CCN(Cc4ccc(-n5cc(-c6ccccc6)nn5)cc4)C3)N3CCN=C23)c1 [39b]
3. O=C1C2=C(CCN(Cc3ccc(-n4cc(-c5ccccc5)nn4)cc3)C2)N2CCN=C2N1Cc1cccc(C#CCN2CCCCC2)c1 [40b]
4. NCC#Cc1cccc(CN2C(=O)C3=C(CCN(Cc4ccc(C(=O)Nc5ccccc5)cc4)C3)N3CCN=C23)c1 [33b]

Found:
103
15
60
115
